Attribution: PubChem BioAssay (NCATS)

# assay.details: NFAT Signaling Pathway (AID 444);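 also: carbachol stimulus at about its EC50 of 1 µM final; % is scaled to controls: 0 for no effect and ±100 for the full control effect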
# measurement.context: Jurkat NFAT-bla M1, carbachol, beta-lactamase ratio, 5 h; at 7.69 µM (top of the series) unless noted
Records with an inconclusive call do not appear.
Listing of recorded activity change, negative = inhibition by entry.

{"molecular.string": "FC(F)(F)c1ccccc1-c1nc(-n2ccnc2)c2ccccc2n1", "unit.annotation": "%", "activity change, negative = inhibition": 3.74}
{"molecular.string": "CN1CCN(c2ncc3nc(-c4cn(C)c5ccccc45)c(=O)n(Cc4cccs4)c3n2)CC1", "unit.annotation": "%", "activity change, negative = inhibition": 3.65}
{"molecular.string": "c1cn(-c2cc(-c3ccc4c(c3)OCO4)ncn2)cn1", "unit.annotation": "%", "activity change, negative = inhibition": 13.4}
{"molecular.string": "COc1cccc(Cn2c(=O)c(-c3ccc(Cl)cc3)nc3cnc(OC)nc32)c1", "unit.annotation": "%", "activity change, negative = inhibition": 8.55}
{"molecular.string": "c1cncc(-c2nccc(-n3ccnc3)n2)c1", "unit.annotation": "%", "activity change, negative = inhibition": 1.68}
{"molecular.string": "c1csc(CNc2nc(-c3ccoc3)nc3ccccc23)c1", "unit.annotation": "%", "activity change, negative = inhibition": -8.44}
{"molecular.string": "COc1cccc(Cn2c(=O)c(-c3cn(C)c4ccccc34)nc3cncnc32)c1", "unit.annotation": "%", "activity change, negative = inhibition": -0.984}
{"molecular.string": "COc1cccc(Cn2c(=O)cnc3cnc(N4CCN(C)CC4)nc32)c1", "unit.annotation": "%", "activity change, negative = inhibition": -19.9}
{"molecular.string": "Cn1cccc1C(=O)N1CCC[C@@]2(CCN(C(=O)Nc3cccc(C#N)c3)C2)C1", "unit.annotation": "%", "activity change, negative = inhibition": 10.5}
{"molecular.string": "COc1cccc(-c2cncnc2NCc2cccs2)c1", "unit.annotation": "%", "activity change, negative = inhibition": 9.12}
{"molecular.string": "COc1ncc2nc(C)c(=O)n(Cc3ccc(F)cc3)c2n1", "unit.annotation": "%", "activity change, negative = inhibition": -2.65}
